target.or.test.system: T1, human CD63 (human, UniProt P08962 2-238)
T1 construct: stably transfected in NIH3T3/hCD63; The cell line is named under assay; also called hCD63
T1 sequence: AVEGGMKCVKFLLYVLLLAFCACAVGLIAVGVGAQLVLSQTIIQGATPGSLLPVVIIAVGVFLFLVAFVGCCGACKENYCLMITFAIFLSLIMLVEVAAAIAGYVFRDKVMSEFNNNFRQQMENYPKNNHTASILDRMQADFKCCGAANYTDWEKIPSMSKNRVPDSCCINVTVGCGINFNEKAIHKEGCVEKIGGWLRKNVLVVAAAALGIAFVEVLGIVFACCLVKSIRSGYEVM
assay.method.text: ECL, NIH3T3/hCD63 cells
measured.metric: binding ratio at 3.7 nM vs NIH3T3 (fold)
Record the value in fold, omitting the unit from your answer.

binder	binding ratio at 3.7 nM vs NIH3T3 [fold]
H2M12395N (antibody, V domains shown, also called H2aM12395N) VH: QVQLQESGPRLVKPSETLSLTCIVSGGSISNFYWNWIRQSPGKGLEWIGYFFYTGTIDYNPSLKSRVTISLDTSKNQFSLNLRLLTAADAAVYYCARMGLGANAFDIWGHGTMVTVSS VL: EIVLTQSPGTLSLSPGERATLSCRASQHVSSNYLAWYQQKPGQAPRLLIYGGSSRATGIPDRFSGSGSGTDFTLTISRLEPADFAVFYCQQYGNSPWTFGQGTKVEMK	91

The binder listed as H1M12451N (antibody, V domains shown) VH: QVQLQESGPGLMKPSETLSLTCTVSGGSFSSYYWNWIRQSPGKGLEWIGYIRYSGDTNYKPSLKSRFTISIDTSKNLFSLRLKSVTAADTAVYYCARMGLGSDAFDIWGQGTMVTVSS VL: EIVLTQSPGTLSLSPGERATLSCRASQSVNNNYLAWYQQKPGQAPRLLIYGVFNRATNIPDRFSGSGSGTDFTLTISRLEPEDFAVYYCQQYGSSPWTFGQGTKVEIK has a reported binding ratio at 3.7 nM vs NIH3T3 of 256
